# target or test system: T1, CD22 on cynomolgus monkey peripheral blood B cells (cynomolgus monkey (Macaca fascicularis))
# T1 construct: whole, on cells; also called cynomolgus monkey B cells
# protocol notes: FACS, cynomolgus PBMC, CD20+ B cells, antibody 1 nM
Reported Proportion of chimeric antibody positive cells to B cells (%) values for the following binders.
Supply the numeric figure in %, leaving out any unit text.

Example binders with recorded Proportion of chimeric antibody positive cells to B cells (%):
{"columns": ["binder", "data value"],
 "data": [
  ["F2.99.1 (antibody, human IgG1, lambda, V domains shown, human-murine chimeric IgG1 lambda; VL name legible) VH: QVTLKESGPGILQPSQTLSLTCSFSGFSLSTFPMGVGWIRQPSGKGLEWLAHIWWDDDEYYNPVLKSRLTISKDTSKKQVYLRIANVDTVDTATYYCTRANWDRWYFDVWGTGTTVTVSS VL: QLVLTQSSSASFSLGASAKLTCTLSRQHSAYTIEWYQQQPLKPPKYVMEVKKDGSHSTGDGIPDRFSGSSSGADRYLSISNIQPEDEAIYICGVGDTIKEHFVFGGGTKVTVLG", 19],
  ["F1.7.6 (antibody, human IgG1, kappa, V domains shown, human-murine chimeric IgG1 kappa; VL name legible) VH: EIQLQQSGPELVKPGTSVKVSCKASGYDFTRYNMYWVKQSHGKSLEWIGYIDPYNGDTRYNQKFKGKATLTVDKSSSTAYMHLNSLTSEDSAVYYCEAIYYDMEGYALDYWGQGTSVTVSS VL: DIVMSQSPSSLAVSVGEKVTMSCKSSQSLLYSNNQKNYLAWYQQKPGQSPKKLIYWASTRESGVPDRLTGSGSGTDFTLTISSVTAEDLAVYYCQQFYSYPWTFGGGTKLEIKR", 17]
]}

Problem: Fill in reported Proportion of chimeric antibody positive cells to B cells (%) for this entry: F2.42.9 (antibody, human IgG1, lambda, V domains shown, human-murine chimeric IgG1 lambda; VL name legible) VH: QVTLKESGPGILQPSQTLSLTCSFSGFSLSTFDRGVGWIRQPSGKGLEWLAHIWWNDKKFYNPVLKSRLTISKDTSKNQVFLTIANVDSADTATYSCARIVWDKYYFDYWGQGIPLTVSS VL: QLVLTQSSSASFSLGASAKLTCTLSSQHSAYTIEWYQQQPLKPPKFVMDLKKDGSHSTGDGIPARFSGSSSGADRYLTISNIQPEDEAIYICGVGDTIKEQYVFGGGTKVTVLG
Solution: 20

Entry source: patent US20240084003A1
